Documented KIRA: ∼EC50 across a set of binders
target: c-Ret on NB41A3-mRL3 cells (UniProt P35546 29-1115, limits assumed); assay: cell-based or functional assay
Sequence (P35546 29-1115 limits assumed): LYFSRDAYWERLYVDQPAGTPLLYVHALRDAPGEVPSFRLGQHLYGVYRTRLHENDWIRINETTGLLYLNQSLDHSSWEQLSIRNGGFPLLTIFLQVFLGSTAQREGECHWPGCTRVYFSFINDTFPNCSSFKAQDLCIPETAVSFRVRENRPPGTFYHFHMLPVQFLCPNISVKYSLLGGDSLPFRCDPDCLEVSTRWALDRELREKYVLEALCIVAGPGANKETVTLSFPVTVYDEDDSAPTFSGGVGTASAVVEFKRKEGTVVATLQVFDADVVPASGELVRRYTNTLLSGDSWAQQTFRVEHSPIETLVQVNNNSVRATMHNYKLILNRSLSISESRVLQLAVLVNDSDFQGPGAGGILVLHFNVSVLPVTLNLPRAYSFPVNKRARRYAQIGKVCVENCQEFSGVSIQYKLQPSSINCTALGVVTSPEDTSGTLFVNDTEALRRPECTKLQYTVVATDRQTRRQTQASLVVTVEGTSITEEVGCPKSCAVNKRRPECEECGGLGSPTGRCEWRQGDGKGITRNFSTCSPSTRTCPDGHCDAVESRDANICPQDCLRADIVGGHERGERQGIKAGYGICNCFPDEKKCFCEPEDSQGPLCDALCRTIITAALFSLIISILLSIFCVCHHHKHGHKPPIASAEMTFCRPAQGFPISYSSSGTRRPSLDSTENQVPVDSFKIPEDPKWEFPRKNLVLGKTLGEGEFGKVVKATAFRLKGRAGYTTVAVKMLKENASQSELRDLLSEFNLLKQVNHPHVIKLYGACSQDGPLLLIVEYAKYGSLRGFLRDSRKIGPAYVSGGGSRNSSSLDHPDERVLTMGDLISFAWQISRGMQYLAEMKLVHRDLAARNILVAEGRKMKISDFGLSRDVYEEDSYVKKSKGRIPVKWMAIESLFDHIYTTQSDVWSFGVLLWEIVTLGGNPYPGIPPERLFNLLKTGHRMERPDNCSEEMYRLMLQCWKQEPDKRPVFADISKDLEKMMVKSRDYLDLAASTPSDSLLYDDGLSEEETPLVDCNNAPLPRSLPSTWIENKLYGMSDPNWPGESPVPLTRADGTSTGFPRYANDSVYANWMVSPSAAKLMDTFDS

2 X 10 kDa PEG-NBN (ligand, 10 kDa PEG on amino acid 1 of each chain (PEGylated amino acids 1,1)) AGTRSSRARATDARGCRLRSQLVPVSALGLGHSSDELIRFRFCSGSCRRARSPHDLSLASLLGAGALRSPPGSRPISQPCCRPTRYEAVSFMDVNSTWRTVDHLSATACGCLG : ~0.2 nM

Read the next record carefully.
Looking for the measured KIRA: ∼EC50 of 2 X 5 kDa PEG-NBN (ligand, 5 kDa PEG on amino acid 1 of each chain (PEGylated amino acids 1,1)) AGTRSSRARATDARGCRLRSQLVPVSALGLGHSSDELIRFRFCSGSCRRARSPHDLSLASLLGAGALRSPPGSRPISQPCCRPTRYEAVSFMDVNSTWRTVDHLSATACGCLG , can you help?
~0.2 nM
